Target: T1, recombinant Ovr110-hFc encoded by Ovr110 Construct 2 (human)
T1 construct: Captured on plates by goat anti-human IgG Fc; also called Ovr110-hFc (with TM)
T1 chain: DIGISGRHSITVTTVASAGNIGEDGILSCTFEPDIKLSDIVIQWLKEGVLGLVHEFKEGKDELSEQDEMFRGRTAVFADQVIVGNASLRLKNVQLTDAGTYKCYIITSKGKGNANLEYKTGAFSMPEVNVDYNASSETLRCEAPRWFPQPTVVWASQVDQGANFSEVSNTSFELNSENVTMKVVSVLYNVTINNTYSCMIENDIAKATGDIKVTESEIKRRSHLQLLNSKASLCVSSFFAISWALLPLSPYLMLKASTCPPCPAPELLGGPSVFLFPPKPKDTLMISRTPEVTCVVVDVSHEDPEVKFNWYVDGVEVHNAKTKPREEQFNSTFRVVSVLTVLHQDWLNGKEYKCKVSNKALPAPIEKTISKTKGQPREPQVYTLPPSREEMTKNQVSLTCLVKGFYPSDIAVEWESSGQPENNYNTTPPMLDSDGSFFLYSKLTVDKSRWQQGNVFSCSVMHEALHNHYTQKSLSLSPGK
Assay: competition ELISA; row = unlabeled blocking MAb; competitor = biotinylated detecting MAb Q27.4
Reported signal/noise ratio values for a set of binders
Reply briefly: the number, and no unit.

Here's what some known entries look like.
# Binder, signal/noise ratio
measured = [
    ("Ovr110.Q23 (antibody, IgG1, V domains shown, Mouse hybridoma MAb; also called Q23.6) VH: QVQLQQSGAELMKPGASVKISCKATGYTFSSYWIEWVKQRPGHGLEWIGEILPGSGITKYNEKFKTKATFTADTSSNTAYMQLSSLTSEDSAVYYCARYYFGSVNFYFDCWGQGTTLTVSS VL: QAVVTQESALTTSPGETVTLTCRSSTGAVTTSNYANWVQEKPDHLFTGLIGGTDNRPPGVPARFSGSLIGDKAALTITGTQTEDEAIYFCALWYSNHWVFGGGTKLTVLG", 2.2),
    ("Ovr110.Q19 (antibody, IgG1, V domains shown, Mouse hybridoma MAb; also called Q19.6; Ovr110.Q19.6) VH: DVLLQESGPGLVKASQSLSLTCSVTGYSITSGYFWNWIRQFPGNKLEWMGYISYDGGNSYNPSLKNRISITRDTSKNQFFLRMKSVTAEDTATYYCARKALWLRFDYWGQGTTLTVSS VL: EIVLTQSPAIMSVYLGEKVTMTCSASLSVSYMHWYQQKSSTSPKLWIYDTSKVASGVPGRFSGSGSGNSYSLTISSMEAEDVATYYCFQGSGYPFTFGSGTKLEIKR", 4.7),
    ("Ovr110.Q27 (antibody, IgG1, V domains shown, Mouse hybridoma MAb; also called Q27.4; Q27.2) VH: QVQPQQSGAELARPGASVKLSCKASGYTFTTYWMQWVKQRPGQGLEWIGAIYPGDGDTRYTQKFKGKATLTADKSSSTAYMQLSSLASEDSAVYYCAINWGYAMDYWGQGTSVTVSS VL: DIVLTQSHKIMSTSVGDRVSITCKASQDVRTAVAWYQQKPGQSPKLLIKSASYRYTGVPDRFSGSGSGTDFTFTISSVQAEDLAVYYCQQHYSNPTFGGGTKLEIKR", 1),
    ("Ovr110.Q11 (antibody, V domains shown, Mouse hybridoma MAb; also called Q11.12.3; Ovr110.Q11.12.3) VH: DVQLQESGPGLVKPSQSLSLTCSVTGYSITSGYFWSWIRQFPGNKLEWMGFISYDGTNSYNPSLKNRISITRDTSKNQFFLRLNSVTKEDTATYYCARKLLWLRFDYWGQGTTLTVSS VL: ENVLTQSPAIMSASPGEKVTMTCSASSSVSYMHWYQQKSSTSPKLWIYDTSKLASGVPGRFSGSGSGNSYSLTISSMEAEDVATYYCFQGSGYPFTFGSGTKLEIKR", 4.7),
]

Pending binder:
Any idea what its signal/noise ratio is? The binder is Ovr110.Q12 (antibody, IgG1, V domains shown, Mouse hybridoma MAb; also called Q12.2; Ovr110.Q12.2) VH: QVQLQQPGAELVKPGATVKLSCKTSGYTFTSYWMHWVKQRPGQGLEWIGEIDPSDSYTNYNQKFKGKATLTVDTSSTTAYMQLSSLTSEDSAVYYCAREYGNNDAMDYWGQGTSVTVSS VL: QIVLTQSPAIMSASPGEKVTMTCSASSGISYMHWYQQKPGTTPKRWIYDASKLASGVPSRFSGSGSGTSYSLTISSMEAEDAATYYCHQRRSYPFTFGSGTKLEIKR
4.3

The reported measurements were obtained from patent US20100136009A1.
